inhibition for assorted compounds
assay overview: Mycobacterium tuberculosis H37Rv growth inhibition, cell based, confirmatory dose response (AID 1949);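 also: bacteria grown 7 days with compound before Alamar blue readout; 0% = untreated bacteria wells and 100% = bacteria with saturating antibiotic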
run parameters: M. tuberculosis H37Rv growth inhibition; stronger effect = higher value
Out of some 100,000 compounds screened, about 1,600 (1.6%) were called active. Not shown: some 3% with an inconclusive outcome. The list is a sample of the results.

Here's what some known entries look like.
> print(dat)
                                   compound  recorded.metric      assay.result
1             CSc1nc(C)c(Oc2ccccc2)c(=O)n1C       inhibition  8.91% (inactive)
2  CCn1c(SCC(=O)Nc2ccc3c(c2)OCO3)nnc1-c1ccccc1       inhibition   4.1% (inactive)
3       CC1(C)NC(=O)N(CCCSc2ccc(Cl)cc2)C1=O       inhibition  4.37% (inactive)

Item C=C1C2(C(=O)Nc3ccc(Br)cn3)CCC(C2)C1(C)C (centres undefined) has what recorded inhibition? 0.92% (inactive)

Would you kindly share the measured inhibition for Cc1c(Cl)cccc1N1CC(O)=C(c2nc3ccccc3s2)C1=N ? 3.11% (inactive)

Please report the recorded inhibition for OCCNc1nc2ccccc2n1-c1ccccc1 . 1.48% (inactive)

Quick one: inhibition for COc1ccc(S(=O)(=O)N(C)CC(=O)NC2CCCCC2)cc1C ? 2.13% (inactive)

// query inhibition value for entry Cc1sc2ncnc(SCC(=O)NCC3CCCO3)c2c1-c1ccc(Cl)cc1 (centres undefined) 2.71% (inactive)

Would you mind telling me what inhibition value was observed for Cc1ccc(C(=O)Nc2ccc(C(=O)NCCCC(=O)O)cc2)o1 ? 4.21% (inactive)

// inhibition lookup, key: O=C(CCCCC(=O)NC1=NCCS1)NC1=NCCS1 1.73% (inactive)

Look at this compound and give its reported inhibition. COc1ccc(OC)c(N(CC(=O)Nc2ccccc2SC)S(=O)(=O)c2ccccc2)c1 13.5% (inactive)

For the compound COc1ccc2nc(NC(=O)CN3CCCCC3)sc2c1 , what inhibition is on record? 3.2% (inactive)

###

assay overview: Mycobacterium tuberculosis H37Rv growth inhibition, cell based, confirmatory dose response (AID 1949);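 also: bacteria grown 7 days with compound before Alamar blue readout; 0% = untreated bacteria wells and 100% = bacteria with saturating antibiotic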
run parameters: M. tuberculosis H37Rv growth inhibition; stronger effect = higher value
The whole screen tested about 100,000 compounds, of which about 1,600 (1.6%) were called active. Not shown: some 3% with an inconclusive outcome. These entries were drawn from the full list.
recorded metric: inhibition (%)
Entry rule: numbers only, all in %.

Answered cases to consult:
> print(dat)
                                   molecule  result.unit  assay.result
1  CC(C)(C)C1(c2ccccc2)NC(=O)NC1=O (configuration not stated)            %        0.0333
2  CC(C(=O)Nc1cccc(C(F)(F)F)c1)N(c1ccc(Oc2ccccc2)cc1)S(C)(=O)=O (configuration not stated)            %          12.4
3  Cc1cc(C)c(NC(=O)COc2ccc(-c3ccccc3)cc2)c(C)c1            %          0.67
4  O=C(Nc1nc(-c2ccc(F)cc2)cs1)c1cccc2ccccc12            %          32.4

For the molecule shown here, COc1ccc(N2CCN(c3nc(NCCc4ccc(OC)c(OC)c4)nc(N4CCOCC4)n3)CC2)cc1 , give the reported inhibition. 40.6

# get_value(readout='inhibition', item= CCCN1CCN(C(=O)c2ccncc2)CC1 ) 1.8
